System: pigweed, palmer
Measurement description: Test A postemergence
Type: in vivo, Amaranthus palmeri
Test parameters: 500 g ai/ha, postemergence, 10 days, visual injury, 0 to 100 scale (0 no effect, 100 complete control)
Readout name: Plant response rating, Pigweed, Palmer
No unit in the answer, only the number.

Data request: Kindly indicate its recorded Plant response rating, Pigweed, Palmer. Item: CCc1ncn(-c2ccc(CC)c(C(=O)N3C[C@H](C)Oc4c(Cl)cccc43)c2)n1 [Compound 95]
Data returned: 90

Data request: Give me measured Plant response rating, Pigweed, Palmer, please, for this molecule: CC(C)c1ncn(-c2cccc(C(=O)N3C[C@H](C)Oc4c(Cl)cccc43)c2)n1 [Compound 78]
Data returned: 90

Data request: Identify Plant response rating, Pigweed, Palmer associated with the molecule CC(C)Cc1ncn(-c2cccc(C(=O)N3C[C@H](C)Oc4c(Cl)cccc43)c2)n1 [Compound 112]
Data returned: 90

###

For each entry below, report its plant injury at 125 g/ha value.
System: wheat
Measurement description: Test A preemergence
Assay type: in vivo, Triticum aestivum
Test parameters: Triticum aestivum, pre-emergence, 240 h, 125 g ai/ha, visual injury after 10 days, 0 to 100 scale, 0 is no effect, 100 is complete control, read-out: Plant response rating, Wheat
Numbers only; they are read as %.

Data request: Quick one: give measured plant injury at 125 g/ha for "C[C@H]1CN(C(=O)c2cccc(-n3cnc(C4CCC4)n3)c2)c2cccc(Cl)c2O1"
Data returned: 0

Data request: Fill in reported plant injury at 125 g/ha for this entry: "Cc1cccc2c1O[C@@H](C)CN2C(=O)c1cccc(-n2cnc(C3COC3)n2)c1"
Data returned: 40

Data request: // fetch plant injury at 125 g/ha given entry "COCc1ncn(-c2cccc(C(=O)N3C[C@H](C)Oc4c(C)cccc43)c2)n1"
Data returned: 0

Data request: Supply plant injury at 125 g/ha value. Item: "Cc1ccc(-n2cnc(C(C)C)n2)cc1C(=O)N1C[C@H](C)Oc2c(Cl)cccc21"
Data returned: 20

###

Tested on: ducksalad
Measurement description: Test B flooded paddy test
Assay type: in vivo, Heteranthera limosa
Test parameters: 250 g ai/ha, Flood, 13 days, 0 to 100 scale (0 no effect, 100 complete control)
Readout name: Plant response rating, Ducksalad

Data request: Tell me measured Plant response rating, Ducksalad for Cc1cccc2c1O[C@@H](C)CN2C(=O)c1cc(-n2cncn2)ccc1F [Compound 50] please.
Data returned: 0

Data request: Write down Plant response rating, Ducksalad measured for item CC(C)c1ncn(-c2ccc(OC(F)F)c(C(=O)N3C[C@H](C)Oc4c(Cl)cccc43)c2)n1 [Compound 143]
Data returned: 65

Data request: Find the measured Plant response rating, Ducksalad of COc1ccc(-n2cnc(C(C)(C)C)n2)cc1C(=O)N1C[C@H](C)Oc2c(Cl)cccc21 [Compound 83] and report it.
Data returned: 30

Data request: Query Plant response rating, Ducksalad for C=CCOc1ccc(-n2cnc(C(C)C)n2)cc1C(=O)N1C[C@H](C)Oc2c(Cl)cccc21 [Compound 110]
Data returned: 0

Data request: Give recorded Plant response rating, Ducksalad. CCOc1ccc(-n2cnc(C(C)C)n2)cc1C(=O)N1C[C@H](C)Oc2c(Cl)cccc21 [Compound 106]
Data returned: 10

Data request: Give reported Plant response rating, Ducksalad value for CC(C)c1ncn(-c2cc(C(=O)N3C[C@H](C)Oc4c(Cl)cccc43)c3ccccc3c2)n1 [Compound 145]
Data returned: 40

Data request: Please give measured Plant response rating, Ducksalad of the following entry: CC1CN(C(=O)c2cccc(-n3cncn3)c2)c2cccc(Br)c2O1 (stereo not drawn) [Compound 25]
Data returned: 35

Data request: Supply reported Plant response rating, Ducksalad belonging to this molecule: C#Cc1cccc2c1OC(C)CN2C(=O)c1cccc(-n2cncn2)c1 (stereo not drawn) [Compound 30]
Data returned: 0

Data request: Using the record for Cc1cccc2c1O[C@@H](C)CN2C(=O)c1cccc(-n2cnc(C(F)(F)F)n2)c1 [Compound 66] , state its measured Plant response rating, Ducksalad.
Data returned: 0

Data request: Complete the entry with Plant response rating, Ducksalad for Cc1cccc2c1O[C@@H](C)CN2C(=O)c1cccc(-n2cnc(Cl)n2)c1 [Compound 69]
Data returned: 0

Data request: Please report the measured Plant response rating, Ducksalad for CC1CN(C(=O)c2ccnc(-n3cncn3)c2)c2cccc(Cl)c2O1 (stereo not drawn) [Compound 1]
Data returned: 0

Data request: State, in one line, measured Plant response rating, Ducksalad of CCc1ncn(-c2ccc(CC)c(C(=O)N3C[C@H](C)Oc4c(Cl)cccc43)c2)n1 [Compound 95]
Data returned: 95

Data request: Consider the molecule CC(C)c1ncn(-c2ccc(OC(F)(F)F)c(C(=O)N3C[C@H](C)Oc4c(Cl)cccc43)c2)n1 [Compound 111] . State its measured Plant response rating, Ducksalad.
Data returned: 65

Data request: Please give measured Plant response rating, Ducksalad of the following entry: C[C@H]1CN(C(=O)c2cccc(-n3cnc(CC4CCCCC4)n3)c2)c2cccc(Cl)c2O1 [Compound 90]
Data returned: 0

Data request: Name the recorded Plant response rating, Ducksalad of the molecule listed here: CC1CN(C(=O)c2cccc(-n3cncn3)c2)c2cccc(F)c2O1 (stereo not drawn) [Compound 20]
Data returned: 85

These measurements were taken from patent US20260262643A1.
